# assay-name: Trypan blue staining, total cell number and viability of treated Morris7777 cells
# Format: cell-based, rat
# measurement-conditions: rat, Etoposide 15 μM 24 hours, Sorafenib 0.5 μM 48 hours
readout-label: viability

{"compound": "CNC(=O)c1cc(Oc2ccc(NC(=O)Nc3ccc(Cl)c(C(F)(F)F)c3)cc2)ccn1 [Sorafenib, sorafenib]", "value": "> 89%"}

# ---- query compound ----
Any idea what viability was measured for COc1cc([C@@H]2c3cc4c(cc3[C@@H](O[C@@H]3O[C@@H]5CO[C@@H](C)O[C@H]5[C@H](O)[C@H]3O)[C@H]3COC(=O)[C@H]23)OCO4)cc(OC)c1O [Etoposide, etoposide] ?
< 85%
